measuredTarget: ETS1 (UniProt P14921)
Sequence: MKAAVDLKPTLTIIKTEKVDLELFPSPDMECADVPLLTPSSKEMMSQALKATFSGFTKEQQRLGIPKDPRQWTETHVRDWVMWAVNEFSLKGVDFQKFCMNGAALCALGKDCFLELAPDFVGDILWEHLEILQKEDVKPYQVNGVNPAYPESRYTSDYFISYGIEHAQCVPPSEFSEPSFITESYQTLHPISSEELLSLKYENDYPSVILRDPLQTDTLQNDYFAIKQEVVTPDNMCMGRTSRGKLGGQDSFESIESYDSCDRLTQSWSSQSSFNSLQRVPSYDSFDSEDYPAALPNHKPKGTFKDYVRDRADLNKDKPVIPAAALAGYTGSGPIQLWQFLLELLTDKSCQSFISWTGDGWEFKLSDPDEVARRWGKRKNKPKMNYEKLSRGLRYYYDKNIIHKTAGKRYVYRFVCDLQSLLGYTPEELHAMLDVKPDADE
protocolDetails: ETS1 binding intensity (PBM fluorescence), ETS1 alone (arbitrary fluorescence units); higher = stronger binding
conditionDescription: ETS1 concentration 1 nM; RUNX1 concentration 0 nM
In this section, each of the sequences is paired with its reported ETS1 binding intensity.

Please review the following examples before continuing.
AGCGGGAGGAAGTGCTGCAGTAGCCACAGCAGCCTG: 534
GGCTCGGTGCTGCTTCCTGTGTGGTCAGGATCACAG: 1870
CATGGGACCCGGAAGTGTGTGGTAAAGCGCCGGGGC: 3590
TTTCCTCGGATTCCCGGATGTGGGTGAGTTCATTTG: 5690
GGGGCAGGAAGTGGAGGTTTGAAGTGGTTTAGAGTA: 1740

Enter reported ETS1 binding intensity observed with ETS1 (UniProt P14921) for ACTTTAATAGAGTCCGGATGCGGTTAGGCTGACAGA
2670

Please provide the recorded ETS1 binding intensity for GTGTGGAAGGAGGAAGCGAGAATGTGGTTACTTAGG , tested on ETS1 (UniProt P14921).
718

Could you share what ETS1 binding intensity was measured for AGTAGAGGAGGAAGTTAAATGTGGTTTTCTGGGTGG , tested on ETS1 (UniProt P14921)?
864

Lookup: ETS1 binding intensity / ETS1 (UniProt P14921) / GGCTTGATTGAACGAGGATGTGGTTCTTGGGTGGGA
686

Please tell me: ETS1 binding intensity of CTGACGCATTTCCGGCCTTTGCGGTTGATCGGTCAT , system ETS1 (UniProt P14921)?
5220

Return ETS1 binding intensity measured with ETS1 (UniProt P14921) given this sequence: TCCAGGATGTGGGATGCCGTGCTGTACCGCATGTCA
498

Request body: readout ETS1 binding intensity, system ETS1 (UniProt P14921), query TTTCAAAACCCGGAAATGACCGCCAGGCTGGCATCA . Return the value.
7800

Checklist item: ETS1 binding intensity tested on ETS1 (UniProt P14921), entry GCCCTGACCCACATCCTGCCGCAGCCTGCTTGTCCT , value?
979

====

measuredTarget: RUNX1 (UniProt Q01196)
Sequence (Q01196 whole entry): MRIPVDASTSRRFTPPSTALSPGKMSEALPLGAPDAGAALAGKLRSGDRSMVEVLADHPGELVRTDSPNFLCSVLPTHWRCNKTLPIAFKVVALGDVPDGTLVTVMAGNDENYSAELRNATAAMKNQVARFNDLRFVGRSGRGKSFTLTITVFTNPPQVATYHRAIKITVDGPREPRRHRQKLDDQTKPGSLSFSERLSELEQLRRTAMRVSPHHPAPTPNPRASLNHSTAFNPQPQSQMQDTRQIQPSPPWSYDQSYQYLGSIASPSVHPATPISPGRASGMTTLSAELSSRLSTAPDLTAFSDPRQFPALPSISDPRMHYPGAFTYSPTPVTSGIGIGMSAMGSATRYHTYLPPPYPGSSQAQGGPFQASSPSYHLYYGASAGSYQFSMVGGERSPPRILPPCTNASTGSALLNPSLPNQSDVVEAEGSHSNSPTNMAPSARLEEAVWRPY
protocolDetails: RUNX1 binding intensity (PBM fluorescence), RUNX1 alone (arbitrary fluorescence units); higher = stronger binding
conditionDescription: RUNX1 concentration 2 nM; ETS1 concentration 0 nM
The following ranges of RUNX1 binding intensity define the classes used here: low (below 800), mid (800 to below 1000), high (1000 or more)

Worked examples follow.
AGGGACTTCCGGTGACCAGAGCACTAGCGCCGCAAA: low
GGGACAGACTCTCCAGGATGTGGTTGGATTTTGGGC: low
CACGCCTGCGGAAGATGAAAACCACACGTCATGCAG: mid
GGTGACACGGCCGGCTTCCTGCCGCAGAGCTCCTGG: low
TACGGGAACTTCCTTTTCTTGTGGTGTGGCCGGGTC: mid
CCTTGCTGCAGGATGCTCTAACCACAAGCCCAGGAG: high

For the record TGGCTTGTTTCCGGTTCCTCTGTGGCGCCGTTCTCG , report the class its RUNX1 binding intensity corresponds to.
mid

For AGCGCCGGAAGTGTGTCTGCGTAAAACTGCGGCTCG , which RUNX1 binding intensity bin applies?
low

Textbook exercise: identify the category of the sequence given here, AGAGGCTTCCTGAGGAACTGGTGTGGTCAGGGGAGC , according to its measured value.
low

Hey, which category is ACAGGAAATGACTTAGGGAAAGTCCCAACCGCAATC in, do you know?
high

Which category fits this record: AGGCTGTGGCGGAAGTGGTCGCGTTACCGCTTGTTT
low
